Attribution: ChEMBL document CHEMBL4765376

# Assay Comment: Cmax in Sprague-Dawley rat at 11.6 mg/kg, po by LC/MS/MS analysis
# Format: ADME, organism-based
# Design: route oral, dose 11.6 mg/kg
# Condition Description: in vivo
Quantity: Cmax (ng/mL)
Answer with a number only, understood to be in ng/mL.

Input line: Report Cmax for `CC1=C[C@@H](C(N)=O)N2C[C@@H]1N(O[C@H](F)C(=O)OC(C)C)C2=O` please.
Output line: 5800

----------
# Assay Comment: Inhibition of beta lactamase OXA-48 in Klebsiella pneumoniae assessed as decrease in enzyme activity using nitrocefin as chromogenic substrate incubated for 10 mins by […] plate reader analysis
# reported pIC50; entries follow
Keep it numeric: pIC50 is minus log10 of the concentration in mol/L.

Molecule: CC1=C[C@@H]2CN(C(=O)N2OC(F)(F)C(=O)O)[C@@H]1C(N)=O
Assay Value: 7.12
--
Molecule: CC1=C[C@@H]2CN(C(=O)N2OC(C)(F)C(=O)O)[C@@H]1C(N)=O (some centres undefined)
Assay Value: 4.05
--
Molecule: CC1=C[C@@H](C(N)=O)N2C[C@@H]1N(O[C@H](F)C(=O)O)C2=O
Assay Value: 6.43
--
Molecule: CC1=C[C@@H](C(N)=O)N2C[C@@H]1N(O[C@@H](F)C(=O)O)C2=O (racemic)
Assay Value: 7.17

Input line: Suppose we examine the molecule `CC1=C[C@@H]2CN(C(=O)N2O[C@@H](F)C(=O)O)[C@@H]1C(=O)NCCNS(N)(=O)=O` ; what pIC50 value has been reported?
Output line: 5.70

Input line: Another molecule to look at: `CC1=C[C@@H]2CN(C(=O)N2OCC(=O)O)[C@@H]1C(N)=O`
Output line: 6.82

Input line: Proceed to `CC1=C[C@@H](C(N)=O)N2C[C@@H]1N(OCC(=O)O)C2=O`
Output line: 7.18

Input line: Same thing, different molecule: `CC1=C[C@@H]2CN(C(=O)N2O[C@@H](F)C(=O)O)[C@@H]1C(=O)NCCS(N)(=O)=O`
Output line: 5.66

Input line: `CC1=C[C@@H]2CN(C(=O)N2O[C@H](F)C(=O)O)[C@@H]1C(N)=O` ?
Output line: 7.15

----------
# Assay Comment: Half-life in Sprague-Dawley rat at 10 mg/kg, iv by LC/MS/MS analysis
# Format: ADME, organism-based
# Condition Description: in vivo
Quantity: half-life
Answer with the figure and its unit, nothing else.

Input line: Requested read-out: half-life. Entry: `CC1=C[C@H](C(N)=O)N2C[C@@H]1N(O[C@H](F)C(=O)O)C2=O`
Output line: 24 min

----------
# Assay Comment: AUC in Sprague-Dawley rat at 11.6 mg/kg, po by LC/MS/MS analysis
# Assay type: ADME, organism-based
# Set-up: dose 11.6 mg/kg
# Condition Description: in vivo
Quantity: AUC

Input line: Can you share its AUC? I mean this compound: `CC1=C[C@@H](C(N)=O)N2C[C@@H]1N(O[C@H](F)C(=O)OC(C)C)C2=O`
Output line: 7040 ng·h/mL

----------
# Assay Comment: Oral bioavailability in Sprague-Dawley rat at 10 mg/kg by LC/MS/MS analysis
# Type: ADME, organism-based
# Condition Description: in vivo
Overview of recorded bioavailability for various molecules
Please state the figure in %; there is no need to write the unit.

Input line: For `CC1=C[C@@H]2CN(C(=O)N2O[C@H](F)C(=O)OC(C)C)[C@@H]1C(N)=O` , what is its reported bioavailability?
Output line: 38

Input line: Proceed to `CC1=C[C@@H](C(N)=O)N2C[C@@H]1N(O[C@@H](F)C(=O)OC(C)C)C2=O`
Output line: 84

Input line: What about this molecule? `CCOC(=O)[C@@H](F)ON1C(=O)N2C[C@H]1C=C(C)[C@H]2C(N)=O`
Output line: 45

Input line: // next record CCOC(=O)[C@H](F)ON1C(=O)N2C[C@H]1C(C)=C[C@H]2C(N)=O (racemic)
Output line: 71

Input line: Check CC1=C[C@@H]2CN(C(=O)N2O[C@H](F)C(=O)OC(C)OC(=O)OC(C)C)[C@@H]1C(N)=O (stereo partly drawn) too.
Output line: 11

----------
Measured log10 IC50 of individual entries
# Assay Comment: Inhibition of beta lactamase AmpC in Pseudomonas aeruginosa assessed as decrease in enzyme activity using nitrocefin as chromogenic substrate incubated for 60 mins by […] plate reader analysis
All values: log10 IC50 [nM].

Some molecules with known log10 IC50 results, for comparison:
Molecule: CC1=C[C@@H]2CN(C(=O)N2O[C@@H](F)C(=O)O)[C@@H]1C(N)=O
Assay Value: 1.85
--
Molecule: CC1=C[C@@H]2CN(C(=O)N2OCC(=O)O)[C@@H]1C(N)=O
Assay Value: 3.08
--
Molecule: CC1=C[C@@H](C(N)=O)N2C[C@@H]1N(O[C@@H](F)C(=O)O)C2=O (racemic)
Assay Value: 2.48
--
Molecule: CC1=C[C@@H]2CN(C(=O)N2O[C@@H](F)C(=O)O)[C@@H]1C(=O)NOCC1CC1
Assay Value: 2.11
--
Molecule: CC1=C[C@@H]2CN(C(=O)N2OS(=O)(=O)O)[C@@H]1C(N)=O
Assay Value: 0.76
--
Molecule: CC1=C[C@@H]2CN(C(=O)N2O[C@@H](F)C(=O)O)[C@@H]1C(=O)NCCNS(N)(=O)=O
Assay Value: 1.15
--
Molecule: CC1=C[C@@H](C(N)=O)N2C[C@@H]1N(O[C@H](F)C(=O)O)C2=O
Assay Value: 2.15
--
Molecule: CC1=C[C@@H]2CN(C(=O)N2O[C@@H](F)C(=O)O)[C@@H]1c1nnc(C(N)=O)o1
Assay Value: 2.26

Input line: Form field: reported log10 IC50 of `CC1=C[C@@H]2CN(C(=O)N2O[C@@H](F)C(=O)O)[C@@H]1C(=O)NC1COC1`
Output line: 1.73

----------
# Assay Comment: Inhibition of beta lactamase OXA-48 in Klebsiella pneumoniae assessed as decrease in enzyme activity using nitrocefin as chromogenic substrate incubated for 60 mins by absorbance plate reader analysis
Quantity: pIC50
Scale: pIC50 equals -log10([C]), with [C] in mol/L.

Molecule: CC1=C[C@@H]2CN(C(=O)N2O[C@@H](F)C(=O)O)[C@@H]1C(N)=O
pIC50: 7.82
//
Molecule: CC1=C[C@@H]2CN(C(=O)N2OC(F)(F)C(=O)O)[C@@H]1C(N)=O
pIC50: 7.85
//
Molecule: NC(=O)[C@@H]1C(C2CC2)=C[C@@H]2CN1C(=O)N2OC(F)C(=O)O (single isomer, unassigned)
pIC50: 8.28

Next item in the queue.
Input line: Given CC1=C[C@@H](C(N)=O)N2C[C@@H]1N(O[C@@H](F)C(=O)O)C2=O (racemic) , state its recorded pIC50.
Output line: 7.72

----------
# Assay Comment: Metabolic stability in human liver S9 fraction assessed as half-life at 10 uM up to 60 mins by LC/MS/MS analysis
# Assay type: ADME, subcellular
Quantity: half-life at 10 µM (min)
Reply numerically in min, unit not repeated.

Input line: Entry `CCOC(=O)[C@H](F)ON1C(=O)N2C[C@H]1C=C(C)[C@H]2C(=O)NCCS(N)(=O)=O` has what half-life at 10 µM?
Output line: 9.9

----------
# Assay Comment: Metabolic stability in rat intestinal S9 fraction assessed as half-life at 10 uM up to 60 mins by LC/MS/MS analysis
# Assay type: ADME, subcellular, Intestine
Quantity: half-life at 10 µM (min)
Just the number in min, nothing appended.

Input line: Need half-life at 10 µM, item `CCOC(=O)[C@H](F)ON1C(=O)N2C[C@H]1C=C(C)[C@H]2C(=O)NCCS(N)(=O)=O`
Output line: 20

----------
# Tested on: Klebsiella pneumoniae
# Assay Comment: Inhibition of beta-lactamase activity in Klebsiella pneumoniae ARC561 assessed as MIC for cefpodoxime antibacterial activity at 4 ug/ml by CLSI based broth dilution method (reference value: 32 ug/ml)
# Condition Description: dose 4.0 µg/ml
Quantity: MIC

Compound: CC1=C[C@@H]2CN(C(=O)N2O[C@@H](F)C(=O)O)[C@@H]1C(=O)NCCNS(N)(=O)=O
Assay Value: 0.125 µg/mL
//
Compound: CC1=C[C@@H]2CN(C(=O)N2O[C@@H](F)C(=O)O)[C@@H]1C(=O)NCCS(N)(=O)=O
Assay Value: 1 µg/mL
//
Compound: CC1=C[C@@H]2CN(C(=O)N2OS(=O)(=O)O)[C@@H]1C(N)=O
Assay Value: < 0.06 µg/mL
//
Compound: CC1=C[C@@H](C(N)=O)N2C[C@@H]1N(OCC(=O)O)C2=O
Assay Value: 0.125 µg/mL

Input line: Quick check: MIC of CC1=C[C@@H](C(N)=O)N2C[C@@H]1N(O[C@@H](F)C(=O)O)C2=O (racemic) ?
Output line: 0.06 µg/mL

Input line: Now give it for `CC1=C[C@@H]2CN(C(=O)N2O[C@@H](F)C(=O)O)[C@@H]1c1nnc(C(N)=O)o1` too.
Output line: 2 µg/mL

Input line: Lookup `CC1=C[C@@H]2CN(C(=O)N2O[C@@H](F)C(=O)O)[C@@H]1C(N)=O`
Output line: 2 µg/mL

Input line: Please answer likewise for `CC1=C[C@@H](C(N)=O)N2C[C@@H]1N(O[C@H](F)C(=O)O)C2=O`
Output line: 0.25 µg/mL

Input line: Subsequent entry: NC(=O)[C@@H]1CC[C@@H]2CN1C(=O)N2OS(=O)(=O)O [AVIBACTAM]
Output line: 1 µg/mL

Input line: What would you report for NC(=O)[C@@H]1C(C2CC2)=C[C@@H]2CN1C(=O)N2OC(F)C(=O)O (single isomer, unassigned) ?
Output line: 2 µg/mL

Input line: Likewise for `CC1=C[C@@H]2CN(C(=O)N2O[C@@H](F)C(=O)O)[C@@H]1C(=O)NOCC1CC1` ?
Output line: 4 µg/mL
